target: Cytochrome P450 3A4 (Homo sapiens); assay: qHTS Assay for Activators of Cytochrome P450 3A4 (AID 885); details: recombinant CYP3A4, Luciferin-PPXE luminescence, 60 min; series mostly up to 57.1 µM; also: nearly all actives have a fitted effect of over 65% in size
The source made the active and inactive calls. Calls follow the shape of the dose curve; as a rule, active = well fitted activation curve with a large enough effect; inconclusive = small, poorly fitted or top-dose-only effect; inactive = no such curve, though single readings can be large or run the other way.
Recorded metric: activity change, positive = activation

| Compound | activity change, positive = activation |
| --- | --- |
| C(#CC1C=CC2OC(c3ccccc3)OCC2O1)c1ccccc1 (centres undefined) | -40.5% [at 11.4 µM] (inactive) |
| CC1=C(C(=O)OCc2ccccc2)C(c2ccc(C3CCCCC3)cc2)NC(=O)N1CCCCCC(=O)O (centres undefined) | inactive |
| COc1cc(OC)c2c(OC)c(-c3ccc4c(c3)OCO4)c(=O)oc2c1 | inactive |
| C=CCOC(=O)C(C(C)=O)C(NC(=O)OC)c1cccs1 (centres undefined) | -101% [at 11.4 µM] (inactive) |

Let us examine a further case.
Prompt: Cytochrome P450 3A4 (Homo sapiens) / activity change, positive = activation / `COc1cccc([C@@H]2Oc3ccc(OC)cc3/C(=N/OC[C@@H](C)[C@H](OCc3ccccc3)C(C)C)[C@@H]2O)c1` : value?
Completion: -89.7% [at 11.4 µM] (inactive)

###

Test: Confirmation and Secondary Assay for Modulators of Hemoglobin Beta Chain Splicing at IVS2 654 locus (AID 910);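 also: HeLa cells stably carrying EGFP split by mutant beta-globin IVS2-654 intron; per-well total GFP intensity by laser scanning cytometry after 2-day treatment; % of control where 0% means no effect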
Conditions: HeLa EGFP-654 splicing reporter, GFP fluorescence, 48 h; series mostly up to 46.1 µM
Experimental: NIH Chemical Genomics Center [NCGC] NIH Molecular Libraries Screening Centers Network [MLSCN] […] NCGC Assay Protocol Summary: Confirmatory Screening. […] Plates were read in the Acumen Explorer (TTP Labtech) using 488 nm laser excitation and 500-520 nm emission PMT filter in a 1 x […] capture mode. Fluorescnet objects ranging in size from 5 to 250 uM were measured and the total peak GFP intensity for each well was used for data analysis. […]
Activity calls are given as the source filed them. The call rests on the fitted dose curve; in most records, active means well fitted activation curve with a large enough effect; inconclusive means small, poorly fitted or top-dose-only effect; inactive means flat fitted curve, though single readings scatter. Square brackets hold non-standard residues; d marks the D form. Peptide text beside a SMILES is read from it. Orn = NCCC[CH](N)C(=O)O
Recorded metric: outcome

The cases that follow already have their outcome on record.
| Compound | outcome |
| --- | --- |
| COC(=O)CC1[C@@]2(C)C[C@@]34OC5(C)OC6(CC[C@@]7(C)C(c8ccoc8)OC(=O)C(C(C)=O)C7[C@]6(O5)C(O)[C@@]3(O)C2O)[C@]14C (stereo partly specified) | inactive |
| OC1C=C2CCN3Cc4cc5c(cc4C(C1O)C23)OCO5 (stereo unspecified) | inactive |
| NC(=O)c1ccc[n+]([C@@H]2OC(COP(=O)([O-])OP(=O)(O)OCC3OC(n4cnc5c(N)ncnc54)C(O)C3O)C(O)C2O)c1 (stereo partly specified) | inactive |
| CC(C)CC1NC(=O)C(CCCN)NC(=O)C(C(C)C)NC(=O)C2CCCN2C(=O)C(Cc2ccccc2)NC(=O)C(CC(C)C)NC(=O)C(CCCN)NC(=O)C(C(C)C)NC(=O)C2CCCN2C(=O)C(Cc2ccccc2)NC1=O (stereo unspecified) (cyclo(FPV[Orn]LFPV[Orn]L); configuration not given here) | inactive |
| CNC1C(O)C2OC3OC(C)CC(=O)[C@@]3(O)O[C@H]2[C@H](NC)C1O (stereo partly specified) | inactive |

Let us examine a further case.
Prompt: // query outcome value for entry CN1C[C@H](C(=O)N[C@@]2(C)O[C@@]3(O)C4CCCN4C(=O)C(Cc4ccccc4)N3C2=O)C[C@H]2c3cccc4[nH]cc(c34)C[C@H]21 (stereo partly specified)
Completion: inactive
